- assay remarks: Binding affinity for dopamine D3 receptor
pKi: −log10 of the molar value.
property measured: pKi

> print(dat)
                                   compound  value.modifier  value
1  O=C(CCCN1C2CCC1CC(c1ccc(Cl)cc1)C2)c1ccc(F)cc1 (stereo not given)               =   6.65
2  O=C(CCCN1CCC(c2ccc(Cl)cc2)CC1)c1ccc(F)cc1               =   7.34
3  O=C(CN1C2CCC1CC(O)(c1ccc(Cl)cc1)C2)c1ccc(F)cc1 (stereo not given)               <   5.00
4  O=C(CCCN1C2CCC1CC(O)(c1ccccc1)C2)c1ccc(F)cc1 (stereo not given)               =   8.49
5  O=C(CCCN1C2CCC1CC(c1ccccc1)C2)c1ccc(F)cc1 (stereo not given)               =   7.29

The reported numbers originate from ChEMBL document CHEMBL1138643.
